All values here come from patent US20250043003A1.

Target: T1, CTLA-4 (antigen of the affinity measurement of Table 1) (UniProt P16410 36-161, limits assumed)
T1 construct: Antigen form and method of the KD measurement are not described
T1 sequence (looked up): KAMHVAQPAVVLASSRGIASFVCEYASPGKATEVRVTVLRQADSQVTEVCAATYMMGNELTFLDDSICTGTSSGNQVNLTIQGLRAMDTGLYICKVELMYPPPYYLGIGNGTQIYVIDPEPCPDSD
Assay: affinity, method not stated
measurement label: Kd (nM)

INSERT INTO results (binder, observed_result) VALUES
  ('AB157 (antibody, IgG1, V domains shown, TremeIgG1 mutant, IgG1; also called TremeIgG1M) VH: QVQLVESGGGVVQPGRSLRLSCAASGFTFSSYGMHWVRQAPGKGLEWVAVIWYDGSNKYYADSVKGRFTISRDNSKNTLYLQMNSLRAEDTAVYYCARDPRGATLYHHYYGMDVWGQGTTVTVSS VL: DIQMTQSPSSLSASVGDRVTITCRASQSINSYLDWYQQKPGKAPKLLIYAASSLQSGVPSRFSGSGSGTDFTLTISSLQPEDFATYYCQQYYSTPFTFGPGTKVEIKR', 2.32),
  ('AB158 (antibody, IgG1, V domains shown, TremeIgG1 mutant, IgG1; also called TremeIgG1M) VH: QVQLVESGGGVVQPGRSLRLSCAASGFTFSSYGMHWVRQAPGKGLEWVAVIWYDGSNKYYADSVKGRFTISRDNSKNTLYLQMNSLRAEDTAVYYCARDPRGATLYHYYYGMDVWGQGTTVTVSS VL: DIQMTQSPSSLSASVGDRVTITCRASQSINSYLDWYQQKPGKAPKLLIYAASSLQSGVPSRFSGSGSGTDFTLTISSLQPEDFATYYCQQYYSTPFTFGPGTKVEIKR', 0.542),
  ('AB139 (TremeIgG1) (antibody, V domains shown, Tremelimumab variable regions; also called mAb139; WT TremeIgG1) VH: QVQLVESGGGVVQPGRSLRLSCAASGFTFSSYGMHWVRQAPGKGLEWVAVIWYDGSNKYYADSVKGRFTISRDNSKNTLYLQMNSLRAEDTAVYYCARDPRGATLYYYYYGMDVWGQGTTVTVSS VL: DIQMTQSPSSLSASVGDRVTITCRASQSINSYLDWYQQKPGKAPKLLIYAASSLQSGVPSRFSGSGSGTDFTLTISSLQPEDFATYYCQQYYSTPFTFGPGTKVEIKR', 0.147),
  ('AB154 (antibody, V domains shown, TremeIgG1 mutant, IgG1; also called mAb154; TremeIgG1M) VH: QVQLVESGGGVVQPGRSLRLSCAASGFTFSHHGMHHVRQAPGKGLEWVAVIWYDGSNKYYADSVKGRFTISRDNSKNTLYLQMNSLRAEDTAVYYCARDPRGATLYYYYYGMDVWGQGTTVTVSS VL: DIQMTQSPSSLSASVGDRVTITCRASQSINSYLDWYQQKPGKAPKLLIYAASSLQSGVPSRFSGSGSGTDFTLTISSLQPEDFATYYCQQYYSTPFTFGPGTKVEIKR', 1.23),
  ('AB159 (antibody, IgG1, V domains shown, TremeIgG1 mutant, IgG1; also called TremeIgG1M) VH: QVQLVESGGGVVQPGRSLRLSCAASGFTFSSYGMHWVRQAPGKGLEWVAVIWYDGSNKHHADSVKGRFTISRDNSKNTLYLQMNSLRAEDTAVYYCARDPRGATLYYYYYGMDVWGQGTTVTVSS VL: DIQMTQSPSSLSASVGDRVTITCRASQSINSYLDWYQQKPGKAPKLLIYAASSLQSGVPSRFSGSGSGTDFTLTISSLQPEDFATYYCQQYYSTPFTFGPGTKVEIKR', 0.387),
  ('AB156 (antibody, IgG1, V domains shown, TremeIgG1 mutant, IgG1; also called Mab156; TremeIgG1M) VH: QVQLVESGGGVVQPGRSLRLSCAASGFTFSSYGMHWVRQAPGKGLEWVAVIWYDGSNKYYADSVKGRFTISRDNSKNTLYLQMNSLRAEDTAVYYCARDPRGATLHHHYYGMDVWGQGTTVTVSS VL: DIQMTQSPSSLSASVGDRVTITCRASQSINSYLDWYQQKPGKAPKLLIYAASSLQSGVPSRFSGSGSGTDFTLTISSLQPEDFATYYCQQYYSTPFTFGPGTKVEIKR', 4.46);
